- ASSAY SYSTEM: hGYS1 enzyme (recombinant hGYS1/GN1 protein) (Homo sapiens (Human), UniProt P13807)
- Sequence (P13807 whole entry): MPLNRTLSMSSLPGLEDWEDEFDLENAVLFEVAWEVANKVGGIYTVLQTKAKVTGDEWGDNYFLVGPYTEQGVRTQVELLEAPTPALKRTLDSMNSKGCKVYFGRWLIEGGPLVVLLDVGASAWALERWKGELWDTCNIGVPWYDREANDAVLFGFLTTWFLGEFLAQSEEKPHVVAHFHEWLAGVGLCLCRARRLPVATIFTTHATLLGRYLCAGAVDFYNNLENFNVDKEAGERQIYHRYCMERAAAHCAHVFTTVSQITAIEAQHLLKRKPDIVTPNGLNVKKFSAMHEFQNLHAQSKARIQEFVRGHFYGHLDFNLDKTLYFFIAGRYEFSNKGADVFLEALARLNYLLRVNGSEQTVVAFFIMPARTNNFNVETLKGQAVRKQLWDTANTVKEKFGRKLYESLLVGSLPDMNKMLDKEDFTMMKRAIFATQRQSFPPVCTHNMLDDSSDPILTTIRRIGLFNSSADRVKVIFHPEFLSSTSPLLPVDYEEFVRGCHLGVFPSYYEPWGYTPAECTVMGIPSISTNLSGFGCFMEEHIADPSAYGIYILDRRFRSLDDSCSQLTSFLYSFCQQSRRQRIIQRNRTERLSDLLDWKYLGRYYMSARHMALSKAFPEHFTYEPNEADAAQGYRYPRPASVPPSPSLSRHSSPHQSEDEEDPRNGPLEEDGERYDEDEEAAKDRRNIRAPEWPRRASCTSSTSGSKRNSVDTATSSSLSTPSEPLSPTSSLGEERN
- Sequence (P46976 whole entry partner): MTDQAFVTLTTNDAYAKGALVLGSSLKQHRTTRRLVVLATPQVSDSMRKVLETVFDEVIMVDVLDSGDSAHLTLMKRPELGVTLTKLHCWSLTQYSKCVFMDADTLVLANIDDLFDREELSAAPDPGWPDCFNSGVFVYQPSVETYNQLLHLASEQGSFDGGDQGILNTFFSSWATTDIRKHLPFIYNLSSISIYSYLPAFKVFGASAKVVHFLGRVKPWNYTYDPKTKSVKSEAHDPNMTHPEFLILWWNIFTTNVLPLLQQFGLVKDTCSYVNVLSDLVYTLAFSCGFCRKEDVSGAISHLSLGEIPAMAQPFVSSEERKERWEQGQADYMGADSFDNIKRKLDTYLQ
- ASSAY NAME: GYS1 coupled enzyme assay (PK/LDH)
- STATED CONDITIONS: hGYS1/GN1 50 nM, UDP-Glucose 0.8 mM, G6P 1 mM; geometric mean of at least 2 runs
RESULT TYPE: IC50 (nM)

- MOLECULE: "CC(C)c1ccc([C@@H](NC(=O)[C@@H]2C[C@@H](F)CN2C(=O)Cn2cn[nH]c2=O)c2ccccc2)nc1 [Compound 288]"
  IC50 (nM): 109
- MOLECULE: "CC(=O)N1CCC(C(=O)N2C[C@H](F)C[C@H]2C(=O)N[C@@H](c2ccccc2)c2ccc(C(C)C)cc2)C1 (stereo partly shown) [Compound 147]"
  IC50 (nM): 127
- MOLECULE: "CC(C)c1ccc([C@@H](NC(=O)[C@@H]2C[C@@H](F)CN2C(=O)CCCn2ccnc2)c2ccccc2)cc1 [Compound 75]"
  IC50 (nM): 224
- MOLECULE: "CC(C)c1ccc([C@@H](NC(=O)[C@@H]2C[C@@H](F)CN2C(=O)Cc2ccncc2)c2ccccc2)cc1 [Compound 39]"
  IC50 (nM): 50
- MOLECULE: "O=C(N[C@@H](c1ccccc1)c1ccc(C2CC2)c(F)c1)[C@@H]1C[C@@H](F)CN1C(=O)Cc1cc2ccccc2[nH]1 [Compound 460]"
  IC50 (nM): 187
- MOLECULE: "Cc1cn(CC(=O)N2C[C@H](F)C[C@H]2C(=O)N[C@@H](c2ccccc2)c2ccc(C3CC3)c(F)n2)c(=O)[nH]c1=O [Compound 295]"
  IC50 (nM): 13
- MOLECULE: "CC1(c2ccc([C@@H](NC(=O)[C@@H]3C[C@@H](F)CN3C(=O)Cc3cnn[nH]3)c3ccccc3)cc2F)CC1 [Compound 558]"
  IC50 (nM): 136
- MOLECULE: "CC(C)c1ccc([C@@H](NC(=O)[C@@H]2C[C@@H](F)CN2C(=O)Cc2cc3ccccc3n2C)c2ccccc2)cc1 [Compound 137]"
  IC50 (nM): 17

(a) CC(C)c1ccc([C@@H](NC(=O)[C@@H]2C[C@@H](F)CN2C(=O)CCc2cn[nH]c2)c2ccccc2)cc1 [Compound 46]
(b) CC(C)c1ccc([C@@H](NC(=O)[C@@H]2C[C@@H](F)CN2C(=O)[C@@H]2CNC(=O)O2)c2ccccc2)cc1F [Compound 381]
### Prompt Decide: a or b , by lowest recorded IC50. Answer format: the label of the selected item.
### Response b
(b: 58 nM, a: 136 nM)
